procedure-details: self-splicing fitness, log relative to wild type (ln ratio); higher = more splicing; Tetrahymena group I intron in knt gene, E. coli kanamycin selection, DiMSum; sequences stand for … in CUCUCU…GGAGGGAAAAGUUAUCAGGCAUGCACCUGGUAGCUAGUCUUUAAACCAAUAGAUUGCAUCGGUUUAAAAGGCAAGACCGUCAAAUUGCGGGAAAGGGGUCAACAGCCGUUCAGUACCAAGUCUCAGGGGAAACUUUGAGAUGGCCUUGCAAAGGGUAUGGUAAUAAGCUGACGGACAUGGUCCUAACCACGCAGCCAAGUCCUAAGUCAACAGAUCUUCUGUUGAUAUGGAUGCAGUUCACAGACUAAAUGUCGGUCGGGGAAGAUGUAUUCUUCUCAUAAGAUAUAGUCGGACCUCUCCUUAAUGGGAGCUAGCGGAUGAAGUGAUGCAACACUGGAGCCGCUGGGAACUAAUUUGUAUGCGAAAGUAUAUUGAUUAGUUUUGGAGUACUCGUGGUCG;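 note: selection with 25 µg/mL kanamycin versus none on LB agar overnight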
condition: 37 °C

[
  {
    "input-sequence": "CCGCAGCAAUAUUACGAGCC",
    "self-splicing fitness (ln)": -2.09
  },
  {
    "input-sequence": "GAACAGCAAUAUUACGCCAG",
    "self-splicing fitness (ln)": -3.05
  },
  {
    "input-sequence": "CUCUAGCAAUAUUACGGGAC",
    "self-splicing fitness (ln)": -3.65
  },
  {
    "input-sequence": "GGAAAGCAAUAUUACGAGUC",
    "self-splicing fitness (ln)": -1.48
  },
  {
    "input-sequence": "CAGGAGCAAUAUUACGCAUU",
    "self-splicing fitness (ln)": 0.11
  },
  {
    "input-sequence": "GAUAAGCAAUAUUACGUAUA",
    "self-splicing fitness (ln)": -1.01
  },
  {
    "input-sequence": "AUAUAGCAAUAUUACGGAUG",
    "self-splicing fitness (ln)": -2.15
  },
  {
    "input-sequence": "CCGAAGCAAUAUUACGGUUU",
    "self-splicing fitness (ln)": -2.23
  },
  {
    "input-sequence": "GUGUAGCAAUAUUACGAUUA",
    "self-splicing fitness (ln)": 0.0491
  },
  {
    "input-sequence": "UACUAGCAAUAUUACGGCGC",
    "self-splicing fitness (ln)": -1.55
  },
  {
    "input-sequence": "UUAUAGCAAUAUUACGAGUG",
    "self-splicing fitness (ln)": -1.32
  },
  {
    "input-sequence": "AACCAGCAAUAUUACGCCAU",
    "self-splicing fitness (ln)": -1.42
  },
  {
    "input-sequence": "AGUUAGCAAUAUUACGGCGA",
    "self-splicing fitness (ln)": 0.709
  },
  {
    "input-sequence": "AUGUAGCAAUAUUACGAUUA",
    "self-splicing fitness (ln)": 0.00536
  },
  {
    "input-sequence": "CGCCAGCAAUAUUACGCCGU",
    "self-splicing fitness (ln)": -1.71
  },
  {
    "input-sequence": "CCACAGCAAUAUUACGUGUA",
    "self-splicing fitness (ln)": -1.63
  },
  {
    "input-sequence": "CCUUAGCAAUAUUACGGCUG",
    "self-splicing fitness (ln)": -2.39
  },
  {
    "input-sequence": "UGUGAGCAAUAUUACGUUCG",
    "self-splicing fitness (ln)": -1.32
  },
  {
    "input-sequence": "UCCAAGCAAUAUUACGUAGG",
    "self-splicing fitness (ln)": -0.159
  },
  {
    "input-sequence": "UCCCAGCAAUAUUACGGGGU",
    "self-splicing fitness (ln)": -2.86
  },
  {
    "input-sequence": "AACGAGCAAUAUUACGCGUC",
    "self-splicing fitness (ln)": -2.85
  },
  {
    "input-sequence": "GCAUAGCAAUAUUACGACAU",
    "self-splicing fitness (ln)": -0.295
  },
  {
    "input-sequence": "GACCAGCAAUAUUACGAAAU",
    "self-splicing fitness (ln)": -0.476
  },
  {
    "input-sequence": "AUUAAGCAAUAUUACGGGAC",
    "self-splicing fitness (ln)": -0.882
  },
  {
    "input-sequence": "GCUUAGCAAUAUUACGCCUG",
    "self-splicing fitness (ln)": -1.02
  },
  {
    "input-sequence": "AGGGAGCAAUAUUACGUGCU",
    "self-splicing fitness (ln)": -1.92
  },
  {
    "input-sequence": "CUCUAGCAAUAUUACGUACG",
    "self-splicing fitness (ln)": -1.4
  },
  {
    "input-sequence": "GCGCAGCAAUAUUACGGAUU",
    "self-splicing fitness (ln)": -0.328
  },
  {
    "input-sequence": "ACGGAGCAAUAUUACGGGAG",
    "self-splicing fitness (ln)": -1.65
  },
  {
    "input-sequence": "AUUCAGCAAUAUUACGAACA",
    "self-splicing fitness (ln)": -0.341
  },
  {
    "input-sequence": "UGAUAGCAAUAUUACGCAUG",
    "self-splicing fitness (ln)": -0.48
  },
  {
    "input-sequence": "UGUUAGCAAUAUUACGCAGG",
    "self-splicing fitness (ln)": -2.96
  },
  {
    "input-sequence": "UACGAGCAAUAUUACGACAU",
    "self-splicing fitness (ln)": -2.47
  },
  {
    "input-sequence": "GAGGAGCAAUAUUACGAGGG",
    "self-splicing fitness (ln)": -1.96
  }
]

* * *

procedure-details: self-splicing fitness, log relative to wild type (ln ratio); higher = more splicing; Tetrahymena group I intron in knt gene, E. coli kanamycin selection, DiMSum; sequences stand for … in CUCUCU…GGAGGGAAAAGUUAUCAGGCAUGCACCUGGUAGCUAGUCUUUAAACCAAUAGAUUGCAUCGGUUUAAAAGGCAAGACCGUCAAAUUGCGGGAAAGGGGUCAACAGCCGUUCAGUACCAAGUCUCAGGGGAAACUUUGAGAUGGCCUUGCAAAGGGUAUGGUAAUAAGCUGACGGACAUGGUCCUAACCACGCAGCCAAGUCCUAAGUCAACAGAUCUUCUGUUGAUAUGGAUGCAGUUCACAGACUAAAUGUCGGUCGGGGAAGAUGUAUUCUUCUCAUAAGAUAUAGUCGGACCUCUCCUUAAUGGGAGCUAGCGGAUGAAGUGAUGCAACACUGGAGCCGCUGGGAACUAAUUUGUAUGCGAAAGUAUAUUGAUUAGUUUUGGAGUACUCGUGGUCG
condition: 30 °C
assay-metric: self-splicing fitness (ln)

[
  {
    "input-sequence": "ACCUAGCAAUAUUACGUCCG",
    "assay-metric": "self-splicing fitness (ln)",
    "numeric-readout": -2.21
  },
  {
    "input-sequence": "GCAGAGCAAUAUUACGUGAG",
    "assay-metric": "self-splicing fitness (ln)",
    "numeric-readout": -1.62
  },
  {
    "input-sequence": "CAGCAGCAAUAUUACGAUGU",
    "assay-metric": "self-splicing fitness (ln)",
    "numeric-readout": -4.21
  },
  {
    "input-sequence": "CUCAAGCAAUAUUACGAUGG",
    "assay-metric": "self-splicing fitness (ln)",
    "numeric-readout": -1.28
  },
  {
    "input-sequence": "GCUCAGCAAUAUUACGACGA",
    "assay-metric": "self-splicing fitness (ln)",
    "numeric-readout": -1.94
  },
  {
    "input-sequence": "AAGCAGCAAUAUUACGCGCG",
    "assay-metric": "self-splicing fitness (ln)",
    "numeric-readout": -1.16
  },
  {
    "input-sequence": "CAACAGCAAUAUUACGUGUC",
    "assay-metric": "self-splicing fitness (ln)",
    "numeric-readout": -2.82
  },
  {
    "input-sequence": "CAGAAGCAAUAUUACGUACC",
    "assay-metric": "self-splicing fitness (ln)",
    "numeric-readout": -2.33
  }
]

* * *

procedure-details: self-splicing fitness, log relative to wild type (ln ratio); higher = more splicing; Tetrahymena group I intron in knt gene, E. coli kanamycin selection, DiMSum; sequences stand for … in CUCUCU…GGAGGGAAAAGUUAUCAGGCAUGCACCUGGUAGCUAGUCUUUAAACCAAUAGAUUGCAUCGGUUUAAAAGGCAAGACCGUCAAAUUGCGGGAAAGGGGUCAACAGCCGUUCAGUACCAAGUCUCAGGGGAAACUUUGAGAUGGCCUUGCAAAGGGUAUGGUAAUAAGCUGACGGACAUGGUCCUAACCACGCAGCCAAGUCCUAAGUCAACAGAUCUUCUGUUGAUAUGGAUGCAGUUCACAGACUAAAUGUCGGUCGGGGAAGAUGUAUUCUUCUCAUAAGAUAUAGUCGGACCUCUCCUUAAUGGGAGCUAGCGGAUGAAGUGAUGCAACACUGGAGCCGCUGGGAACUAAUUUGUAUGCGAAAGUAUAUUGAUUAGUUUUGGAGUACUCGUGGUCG
condition: 37 °C
Please enter YES where self-splicing fitness (ln) is greater than or equal to -1, and NO where it is lower.

[
  {
    "input-sequence": "UGACAGCAAUAUUACGACGA",
    "assigned-class": "YES"
  },
  {
    "input-sequence": "GAUCAGCAAUAUUACGGCCU",
    "assigned-class": "NO"
  },
  {
    "input-sequence": "AACCAGCAAUAUUACGGUCA",
    "assigned-class": "YES"
  },
  {
    "input-sequence": "CAGCAGCAAUAUUACGGGCA",
    "assigned-class": "NO"
  },
  {
    "input-sequence": "GUUUAGCAAUAUUACGAUUC",
    "assigned-class": "YES"
  },
  {
    "input-sequence": "GUUUAGCAAUAUUACGACUU",
    "assigned-class": "YES"
  },
  {
    "input-sequence": "GGGAAGCAAUAUUACGUAGC",
    "assigned-class": "NO"
  },
  {
    "input-sequence": "AACGAGCAAUAUUACGUUCA",
    "assigned-class": "NO"
  },
  {
    "input-sequence": "AUAUAGCAAUAUUACGCCUG",
    "assigned-class": "NO"
  },
  {
    "input-sequence": "UUUGAGCAAUAUUACGAGGU",
    "assigned-class": "NO"
  },
  {
    "input-sequence": "GAGUAGCAAUAUUACGUGAG",
    "assigned-class": "NO"
  },
  {
    "input-sequence": "AGAUAGCAAUAUUACGGACU",
    "assigned-class": "YES"
  },
  {
    "input-sequence": "CCUCAGCAAUAUUACGUCGC",
    "assigned-class": "NO"
  },
  {
    "input-sequence": "UGAUAGCAAUAUUACGGUGG",
    "assigned-class": "NO"
  },
  {
    "input-sequence": "UUAAAGCAAUAUUACGGGAU",
    "assigned-class": "YES"
  },
  {
    "input-sequence": "CUUAAGCAAUAUUACGAACG",
    "assigned-class": "YES"
  }
]
